- System: mouse peritoneal macrophages
- Test Description: Cytotoxicity examined microscopically (morphological alteration of cells)
- Format: cell-based, mouse (female ICR)
- Measurement Conditions: Table 4; 5 μM; observed microscopically
Measured Attribute: Cytotoxicity

{"Molecule": "CNS(=O)(=O)c1ccc2c(c1)nc(SCCCCCSc1ccccn1)n2C", "Cytotoxicity": "Not observed"}
{"Molecule": "c1ccc(CCCCCSc2nc3ccccc3[nH]2)nc1", "Cytotoxicity": "Not observed"}
{"Molecule": "c1ccc2[nH]c(SCCCCCSc3ncc[nH]3)nc2c1", "Cytotoxicity": "Not observed"}
{"Molecule": "Cc1nnc(SCCCCCSc2nc3ccccc3[nH]2)o1", "Cytotoxicity": "Not observed"}
{"Molecule": "Cc1ccnc(SCCCCCSc2nc3ccccc3[nH]2)n1", "Cytotoxicity": "Not observed"}
{"Molecule": "CS(=O)(=O)Nc1ccc2[nH]c(SCCCCCSc3ccccn3)nc2c1", "Cytotoxicity": "Not observed"}
{"Molecule": "Oc1cc(SCCCCCSc2nc3cc(Cl)c(Cl)cc3[nH]2)nc2ccccc12", "Cytotoxicity": "Not observed"}
{"Molecule": "c1ccc2[nH]c(SCCCCCSc3ncnc4cn[nH]c34)nc2c1", "Cytotoxicity": "Not observed"}
{"Molecule": "Cn1cnnc1SCCCCCSc1nc2ccccc2[nH]1", "Cytotoxicity": "Not observed"}
{"Molecule": "c1cnc2c(SCCCCCSc3nc4ccccc4[nH]3)cccc2c1", "Cytotoxicity": "Not observed"}

For record CC1=CC(C)(C)NC(SCCCCCSc2nc3ccccc3[nH]2)=N1 the listed Cytotoxicity is Not observed

Memo: c1ccc(-c2nnc(SCCCCCSc3nc4ccccc4[nH]3)o2)cc1 , reported Cytotoxicity: Not observed

# Cytotoxicity (molecule: c1ccc2[nH]c(SCCCCCSc3nnc(SCCn4ccnc4)s3)nc2c1 ) is Not observed

In plain terms, c1ccc(-c2nc(SCSc3nc4ccccc4[nH]3)[nH]c2-c2ccccc2)cc1 [Control Compound, reference compound] has a documented Cytotoxicity of Not observed

###

- System: mouse peritoneal macrophages
- Test Description: Cytotoxicity examined microscopically (morphological alteration of cells)
- Assay type: cell-based, mouse (female ICR)
- Measurement Conditions: Table 4; 5 μM; observed microscopically
Measured Attribute: Cytotoxicity

Example molecules with recorded Cytotoxicity:
{"Compound Structure String": "Cn1ccnc1SCCCCCSc1nc2ccccc2[nH]1", "Cytotoxicity": "Not observed"}
{"Compound Structure String": "c1ccc(-n2nnnc2SCCCCCSc2nc3ccccc3[nH]2)cc1", "Cytotoxicity": "Not observed"}
{"Compound Structure String": "c1ccc(SCCCCCCCCSc2nc3ccccc3[nH]2)nc1", "Cytotoxicity": "Not observed"}
{"Compound Structure String": "CN(C)C(=O)c1ccc2[nH]c(SCCCCCSc3ccccn3)nc2c1", "Cytotoxicity": "Not observed"}
{"Compound Structure String": "c1ccc2[nH]c(SCCCCCSC3=NCCS3)nc2c1", "Cytotoxicity": "Not observed"}

# Cytotoxicity (molecule: Clc1cc2nc(CCCCCSc3ccccn3)[nH]c2cc1Cl ) is Not observed

Consider CCC(=O)Nc1ccc2[nH]c(SCCCCCSc3ccccn3)nc2c1 . Its measured Cytotoxicity is Not observed

So, S=c1sc(SCCCCCSc2nc3ccccc3[nH]2)nn1-c1ccccc1 ? Its Cytotoxicity was Not observed

Input c1ccc(SCCOCCSc2nc3ccccc3[nH]2)nc1 . Output Cytotoxicity: Not observed

Sure, the documented Cytotoxicity for O=[N+]([O-])c1ccnc(SCCCCCSc2nc3ccccc3[nH]2)c1 is Not observed
